Listed here: items and their measured viability, T/C.
- Test system: MDA-MB-231 complex spheroids, growth inhibition
- Experiment Description: Anticancer human tumor MDA-MB-231 cell line growth inhibition [Asc];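 note: spheroids exposed to compounds for 7 days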
- Condition Label: second compound 0.316 µM; first compound 0.316 µM; stronger effect = lower value

{"Compound": "CNC(C)C(=O)NC1CN(S(=O)(=O)c2cccc(S(=O)(=O)N3CCC4CCC(C(=O)NC(c5ccccc5)c5ccccc5)N4C(=O)C(NC(=O)C(C)NC)C3)c2)CCC2CCC(C(=O)NC(c3ccccc3)c3ccccc3)N2C1=O (stereo not drawn) + Cc1c(S(C)(=O)=O)c(-c2cc(F)cc(N3CCN(c4ccc(NS(=O)(=O)c5ccc(NC(CCN6CCC(C(=O)OCCCP(=O)(O)O)CC6)CSc6ccccc6)c(S(=O)(=O)C(F)(F)F)c5)cc4)CC3)c2)c(-c2ccc(Cl)cc2)n1C(C)C", "viability, T/C (%)": 0.53}
{"Compound": "CCN1CCN(Cc2ccc(Nc3ncc(F)c(-c4cc(F)c5nc(C)n(C(C)C)c5c4)n3)nc2)CC1 + CNC(C)C(=O)NC1CN(S(=O)(=O)c2cccc(S(=O)(=O)N3CCC4CCC(C(=O)NC(c5ccccc5)c5ccccc5)N4C(=O)C(NC(=O)C(C)NC)C3)c2)CCC2CCC(C(=O)NC(c3ccccc3)c3ccccc3)N2C1=O", "viability, T/C (%)": 1.38}
{"Compound": "C=C(F)C(=O)N1CCN(c2nc(OCC3CCCN3C)nc3c2CCN(c2cccc4cccc(Cl)c24)C3)CC1CC#N (stereo not drawn) + CNC(C)C(=O)NC1CN(S(=O)(=O)c2cccc(S(=O)(=O)N3CCC4CCC(C(=O)NC(c5ccccc5)c5ccccc5)N4C(=O)C(NC(=O)C(C)NC)C3)c2)CCC2CCC(C(=O)NC(c3ccccc3)c3ccccc3)N2C1=O", "viability, T/C (%)": 1.54}

* * *

- Tested on: MDA-MB-231 complex spheroids, growth inhibition
- Experiment Description: Anticancer human tumor MDA-MB-231 cell line growth inhibition [Asc];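 note: spheroids exposed to compounds for 7 days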
- Condition Label: curve of first compound; second compound 0.03 µM
- Description: Multicellular complex tumor spheroid response to apoptosis pathway targeting inhibitors Alrizomadlin, Pelcitoclax, and Dasminapant in combination with a variety of drugs and investigational agents in selected tumor cell lines […] Compounds. […] If the clinical Cmax for an agent had not been determined, the highest concentration tested was 10 microM. […]
Listed here: items and their measured IC50.
Measured Parameter: IC50 (nM)

{"Molecule": "C=C(F)C(=O)N1CCN(c2nc(OCC3CCCN3C)nc3c2CCN(c2cccc4cccc(Cl)c24)C3)CC1CC#N (configuration not stated) + CCN1C(C(=O)NC23CCC(C(=O)O)(CC2)CC3)C(c2cccc(Cl)c2F)C2(C(=O)Nc3cc(Cl)ccc32)C12CCCCC2", "Subject Of Test": "MDA-MB-231 complex spheroids, growth inhibition", "Unit Spec": "nM", "Value Prefix": "=", "Number": 3310}
{"Molecule": "Cc1nc(N2CCC3(CC2)COC(C)C3N)c(CO)nc1Sc1ccnc(N)c1Cl (configuration not stated) + CCN1C(C(=O)NC23CCC(C(=O)O)(CC2)CC3)C(c2cccc(Cl)c2F)C2(C(=O)Nc3cc(Cl)ccc32)C12CCCCC2", "Subject Of Test": "MDA-MB-231 complex spheroids, growth inhibition", "Unit Spec": "nM", "Value Prefix": "=", "Number": 319}
{"Molecule": "COc1c(OCCCN2CCOCC2)ccc2c3n(c(=NC(=O)c4cnc(N)nc4)nc12)CCN3 + CCN1C(C(=O)NC23CCC(C(=O)O)(CC2)CC3)C(c2cccc(Cl)c2F)C2(C(=O)Nc3cc(Cl)ccc32)C12CCCCC2", "Subject Of Test": "MDA-MB-231 complex spheroids, growth inhibition", "Unit Spec": "nM", "Value Prefix": "=", "Number": 81.4}
{"Molecule": "C#Cc1c(F)ccc2cc(O)cc(-c3ncc4c(N5CC6CCC(C5)N6)nc(OCC56CCCN5CC(F)C6)nc4c3F)c12 (configuration not stated) + CCN1C(C(=O)NC23CCC(C(=O)O)(CC2)CC3)C(c2cccc(Cl)c2F)C2(C(=O)Nc3cc(Cl)ccc32)C12CCCCC2", "Subject Of Test": "MDA-MB-231 complex spheroids, growth inhibition", "Unit Spec": "nM", "Value Prefix": ">", "Number": 10000}
{"Molecule": "O=C(c1cc(Cc2n[nH]c(=O)c3ccccc23)ccc1F)N1CCN(C(=O)C2CC2)CC1 + CCN1C(C(=O)NC23CCC(C(=O)O)(CC2)CC3)C(c2cccc(Cl)c2F)C2(C(=O)Nc3cc(Cl)ccc32)C12CCCCC2", "Subject Of Test": "MDA-MB-231 complex spheroids, growth inhibition", "Unit Spec": "nM", "Value Prefix": ">", "Number": 10000}
{"Molecule": "CNC(C)C(=O)NC1CN(S(=O)(=O)c2cccc(S(=O)(=O)N3CCC4CCC(C(=O)NC(c5ccccc5)c5ccccc5)N4C(=O)C(NC(=O)C(C)NC)C3)c2)CCC2CCC(C(=O)NC(c3ccccc3)c3ccccc3)N2C1=O (configuration not stated) + CCN1C(C(=O)NC23CCC(C(=O)O)(CC2)CC3)C(c2cccc(Cl)c2F)C2(C(=O)Nc3cc(Cl)ccc32)C12CCCCC2", "Subject Of Test": "MDA-MB-231 complex spheroids, growth inhibition", "Unit Spec": "nM", "Value Prefix": "<", "Number": 3.16}
{"Molecule": "O=C(c1ccc(F)c(F)c1Nc1ccc(I)cc1F)N1CC(O)([C@@H]2CCCCN2)C1 + CCN1C(C(=O)NC23CCC(C(=O)O)(CC2)CC3)C(c2cccc(Cl)c2F)C2(C(=O)Nc3cc(Cl)ccc32)C12CCCCC2", "Subject Of Test": "MDA-MB-231 complex spheroids, growth inhibition", "Unit Spec": "nM", "Value Prefix": "=", "Number": 56.2}
